- System Under Test: T1, CRBN, Q96SW2;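 note: pooled lentiviral library of zinc finger degron-EGFP fusions in mCherry-positive Jurkat cells, FACS-sorted after compound exposure, with degron abundance counted by next-generation sequencing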
- T1 chain: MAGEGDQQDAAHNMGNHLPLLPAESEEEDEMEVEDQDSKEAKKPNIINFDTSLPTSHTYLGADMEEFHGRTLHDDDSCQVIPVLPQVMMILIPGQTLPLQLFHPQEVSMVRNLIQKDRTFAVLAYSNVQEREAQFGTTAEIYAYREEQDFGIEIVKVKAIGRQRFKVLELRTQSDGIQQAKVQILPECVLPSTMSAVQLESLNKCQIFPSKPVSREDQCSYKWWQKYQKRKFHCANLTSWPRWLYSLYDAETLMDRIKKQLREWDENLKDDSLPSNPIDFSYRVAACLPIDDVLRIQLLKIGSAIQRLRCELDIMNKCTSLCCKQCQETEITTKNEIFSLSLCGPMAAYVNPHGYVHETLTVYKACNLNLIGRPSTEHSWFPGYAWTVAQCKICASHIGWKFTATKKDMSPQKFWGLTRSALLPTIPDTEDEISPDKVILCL
- Experiment: log2 fold change of degron read counts, EGFP-low vs EGFP+ sorted cells (limma voom), compound-induced degradation; higher = more compound-induced degradation of the degron-EGFP fusion; degrons are variants of IKZF1/3 zinc finger 2; compound dose not given here
- Conditions: Jurkat; 18 h; compound: compound 19 (5-tert-butyl-thalidomide)
Whole data set: some 8,300 sequences, median “log2 fold change of degron read counts, EGFP-low vs EGFP+ sorted cells (limma voom), compound-induced degradation” near -1.1, cut for the highest 2% near 3.2. This is one part of a sample in which the highest values are shown more often than they occur.
Lab note: compare log2 fold change of degron read counts against 1. Equal or greater, write Y. Smaller, write N.

Residue Codes | Assigned Label
FHCEVCGAQFTQKGNLLRHIKL [46F_47H_49E_50V_52G_53A_54Q_55F_67L_, Q9UKT9] | Y
FMCEICGHLFTQKGNLLRHIKL [46F_47M_49E_50I_52G_53H_54L_55F_67L_, Q9UKT9] | N
LGCEICGFFCTQKGNLLRHIKL [46L_47G_49E_50I_52G_53F_54F_55C_67L_, Q9UKT9] | Y
FWCDVCGASFTQKGNLLRHIKL [46F_47W_49D_50V_52G_53A_54S_55F_67L_, Q9UKT9] | Y
FVCDVCGASFTQKGNLLRHIKL [46F_47V_49D_50V_52G_53A_54S_55F_67L_, Q9UKT9] | N
FFCDVCGAMFTQKGNLLRHIKL [46F_47F_49D_50V_52G_53A_54M_55F_67L_, Q9UKT9] | Y
FQCEICGHGFTQKGNLLRHIKL [46F_47Q_49E_50I_52G_53H_54G_55F_67L_, Q9UKT9] | N
FECDVCGASFTQKGNLLRHIKL [46F_47E_49D_50V_52G_53A_54S_55F_67L_, Q9UKT9] | N
FMCNQCGAKFTQKGNLLRHIKL [46F_47M_49N_50Q_52G_53A_54K_55F_67L_, Q9UKT9] | N
FVCEVCGAQFTQKGNLLRHIKL [46F_47V_49E_50V_52G_53A_54Q_55F_67L_, Q9UKT9] | N
FICEVCGAQFTQKGNLLRHIKL [46F_47I_49E_50V_52G_53A_54Q_55F_67L_, Q9UKT9] | N
FICPVCGASFTQKGNLLRHIKL [46F_47I_49P_50V_52G_53A_54S_55F_67L_, Q9UKT9] | N
FDCEVCGAQFTQKGNLLRHIKL [46F_47D_49E_50V_52G_53A_54Q_55F_67L_, Q9UKT9] | Y
FLCPVCGASFTQKGNLLRHIKL [46F_47L_49P_50V_52G_53A_54S_55F_67L_, Q9UKT9] | N
FYCEVCGAQFTQKGNLLRHIKL [46F_47Y_49E_50V_52G_53A_54Q_55F_67L_, Q9UKT9] | Y
LSCPICGFRCTQKGNLLRHIKL [46L_47S_49P_50I_52G_53F_54R_55C_67L_, Q9UKT9] | Y
LRCPICGFPCTQKGNLLRHIKL [46L_47R_49P_50I_52G_53F_54P_55C_67L_, Q9UKT9] | Y
FQCEVCGAQFTQKGNLLRHIKL [46F_47Q_49E_50V_52G_53A_54Q_55F_67L_, Q9UKT9] | N
LQCPICGFECTQKGNLLRHIKL [46L_47Q_49P_50I_52G_53F_54E_55C_67L_, Q9UKT9] | Y
